Reference source: paper PMC5540273

System: ERK3
Construct: gene MAPK6
Settings: concentration: 1 μM, replicates: in singlicate; n = 1;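 further: KINOMEscan kinase panel screen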
// reported %Inh per item
outcome measure: %Inh (%)

| molecule | target entity | outcome measure | measurement |
| --- | --- | --- | --- |
| Cc1ccc(-c2ccc3occ(-c4ccc(S(C)=O)cc4)c3c2)nn1 (stereo not drawn) | ERK3 | %Inh | 0 |
| CC(C)(C)c1ccc(C(=O)Nc2cn3cc(-n4ccnc4)ccc3n2)cc1 | ERK3 | %Inh | 10 |
| O=C(Nc1c(F)cccc1F)c1cc(C(=O)c2ccccc2F)c[nH]1 [GSK1326180] | ERK3 | %Inh | 9 |
| Cc1nn2c(=O)cc(N3CCO[C@H](C)C3)nc2n1Cc1cccc(Cl)c1Cl [GSK2373693] | ERK3 | %Inh | 0 |
| CCn1cnc2c(NCc3ccccc3)ncnc21 [SKF-96418] | ERK3 | %Inh | 7 |
| COC(=O)Nc1nc2ccc(Oc3ccc(NC(=O)Nc4cc(C(F)(F)F)ccc4F)cc3)cc2[nH]1.Cl [GW654607] | ERK3 | %Inh | 16 |
| Cc1ccc(Nc2ccnc(Nc3ccc(C)c(F)c3)n2)cc1O.Cl [GW582868] | ERK3 | %Inh | 0 |
| Cn1cc(-c2cnc(N)c3c(-c4ccc5c(c4)CCN5C(=O)Cc4ccccc4)csc23)cn1 [GSK2593074] | ERK3 | %Inh | 0 |
| CCNc1nccc(-c2c(-c3ccc(F)cc3)ncn2C2CCN(C)CC2)n1 | ERK3 | %Inh | 0 |
| CN(C)CCNS(=O)(=O)c1ccc(-c2ccnc3[nH]ccc23)cc1 [GSK977620] | ERK3 | %Inh | 3 |
| O=C(Nc1n[nH]c2nc(-c3ccccc3O)ccc12)C1CC1 [SB-711880] | ERK3 | %Inh | 0 |
| Cc1cccc(Nc2nc(N[C@H]3CCCC[C@H]3N)ncc2C(N)=O)c1.Cl [GSK986310] | ERK3 | %Inh | 27 |
| NCCC(NC(=O)c1cc(Br)c(-c2ccnc3[nH]ccc23)s1)c1ccccc1.O=C(O)C(F)(F)F.O=C(O)C(F)(F)F (stereo not drawn) [GSK1307810] | ERK3 | %Inh | 7 |
| Cc1ccc(NC(=O)c2ccc(Cl)c(Cl)c2)cc1-c1ccc(C(=O)Nc2ccncc2)cc1 [GSK1398460] | ERK3 | %Inh | 0 |
| COC(=O)Nc1nc2cc(Oc3ccc(NC(=O)Nc4cccc(SC)c4)cc3)ccc2[nH]1.Cl [GW697999] | ERK3 | %Inh | 0 |
| CN(c1ccc2c(c1)nc(NCc1ccccc1)n2C)c1ccnc(Nc2ccc(CS(C)(=O)=O)cc2)n1.Cl [GW811603] | ERK3 | %Inh | 0 |
| Cc1ccc(O)cc1Nc1ccnc2ccc(C(C)(C)C)cc12 [GW856805] | ERK3 | %Inh | 9 |
| Nc1ncnc2scc(-c3ccc(NC(=O)Cc4cc(F)ccc4F)cc3)c12.O=C(O)C(F)(F)F [SB-731254-M] | ERK3 | %Inh | 0 |

###

System: MAP4K3
Details: concentration: 1 μM, replicates: in singlicate; n = 1
// reported %Inh per item
outcome measure: %Inh

| query smiles | measurement |
| --- | --- |
| CSc1ccc(NC2=C(c3ccc(Cl)cc3)C(=O)NC2=O)cc1 | 1% |
| O=C(Nc1c(F)cccc1F)c1cc(C(=O)c2ccccc2F)c[nH]1 | 0% |
| Cc1cc(-c2ccnc(Nc3cccc(C#N)c3)n2)cc(C)c1O | 18% |
| Cc1cccc(Nc2nc(N[C@H]3CCCC[C@H]3N)ncc2C(N)=O)c1.Cl | 31% |
| Cn1cc(-c2ccc3c(c2)CCN3C(=O)Cc2cc(F)cc(F)c2F)c2c(N)ncnc21 | 78% |

###

Test system: FGFR4
Conditions: concentration: 1 μM, replicates: in singlicate; n = 1
Please use Yes for %Inh under 6% and No for everything else, ties included.

| query smiles | target entity | assigned category |
| --- | --- | --- |
| CSc1ccc(NC2=C(c3ccc(Cl)cc3)C(=O)NC2=O)cc1 | FGFR4 | Yes |
| Cl.O=C(Nc1ccc(Oc2ccc3[nH]c(NC(=O)c4ccco4)nc3c2)cc1)Nc1cc(C(F)(F)F)ccc1F | FGFR4 | No |
| Cc1ccc(NC(=O)c2ccnc(N3CCCCC3)c2)cc1-c1ccc(C(=O)NCC2CC2)cc1 | FGFR4 | Yes |
| CC(C)(C)c1ccc(C(=O)Nc2cn3cc(-n4ccnc4)ccc3n2)cc1 | FGFR4 | No |
| Cc1ccc(O)cc1Nc1ccnc2ccc(C(C)(C)C)cc12 | FGFR4 | Yes |
| Cc1ccccc1CC(=O)N1CCc2cc(-c3cn(C)c4ncnc(N)c34)ccc21 | FGFR4 | Yes |
| COc1cccc(C2=C(Nc3cccc(O)c3)C(=O)NC2=O)c1 | FGFR4 | No |
| CN(c1ccc(NC(=O)Nc2cccc(Cl)c2)cc1)c1ccnc(N)n1.Cl | FGFR4 | No |
| c1ccc(Oc2ccc(Nc3ccnc4cc(-c5ccc(CN6CCCCC6)o5)ccc34)cc2)nc1 | FGFR4 | Yes |
| COc1cc(Nc2nccc(N3CCC(NS(=O)(=O)c4ccc(NC(C)=O)cc4)CC3)n2)cc(OC)c1OC | FGFR4 | No |

###

// reported %Inh per item
Test system: CDK4
Details: concentration: 1 μM, replicates: in singlicate; n = 1
outcome measure: %Inh (%)

| query smiles | target entity | readout units | measurement |
| --- | --- | --- | --- |
| Cc1ccc(NC(=O)c2cccc(N3CCCCC3)c2)cc1-c1ccc(C(=O)NCC2CC2)cc1 | CDK4 | % | 0 |
| COc1cccc(-c2nc(-c3ccccc3)[nH]c2-c2ccncc2)c1 | CDK4 | % | 0 |
| Cl.O=C(Nc1ccc(Oc2ccc3[nH]c(NC(=O)c4ccco4)nc3c2)cc1)Nc1cc(C(F)(F)F)ccc1F | CDK4 | % | 4 |
| Cc1ccccc1CC(=O)N1CCc2cc(-c3cn(C)c4ncnc(N)c34)ccc21 | CDK4 | % | 29 |
| O=C(Nc1n[nH]c2cc(-c3cccs3)ccc12)C1CC1 | CDK4 | % | 8 |
| COc1cc(Nc2nccc(N3CCC(NS(=O)(=O)c4ccc(NC(C)=O)cc4)CC3)n2)cc(OC)c1OC | CDK4 | % | 0 |
| O=C1NC(=O)C(c2ccccc2Cl)=C1Nc1cccc(Cl)c1 | CDK4 | % | 0 |
| N#Cc1cnc2cc(-c3cnc(CNCCN4CCOCC4)s3)ccc2c1Nc1ccc(Oc2ccccc2)cc1 | CDK4 | % | 10 |

###

System: RPS6KA4(Kin.Dom.2-C-terminal)
Settings: concentration: 1 μM, replicates: in singlicate; n = 1
Classify as follows. Reported %Inh greater than or equal to 7%: YES. Reported %Inh below: NO.

| compound | target entity | assigned category |
| --- | --- | --- |
| CN1CCN(Cc2ccc(NC(=O)Nc3ccc(N(C)c4ccnc(Nc5ccc(CS(C)(=O)=O)cc5)n4)cc3)cc2)CC1.Cl | RPS6KA4(Kin.Dom.2-C-terminal) | YES |
| O=C(Nc1n[nH]c2nc(-c3cccc(O)c3)ccc12)C1CC1 | RPS6KA4(Kin.Dom.2-C-terminal) | YES |
| COC(=O)Nc1nc2cc(Oc3ccc(NC(=O)Nc4cccc(SC)c4)cc3)ccc2[nH]1.Cl | RPS6KA4(Kin.Dom.2-C-terminal) | NO |
| Cc1ccc(-c2ccc3occ(-c4ccc(S(C)=O)cc4)c3c2)nn1 (centres unmarked) | RPS6KA4(Kin.Dom.2-C-terminal) | NO |
| O=C(Nc1n[nH]c2nc(-c3ccccc3)ccc12)C1CC1 | RPS6KA4(Kin.Dom.2-C-terminal) | NO |
| Nc1ncc(-c2ccc3nccc(-c4ccncc4)c3c2)cc1S(=O)(=O)N1CCCCC1 | RPS6KA4(Kin.Dom.2-C-terminal) | NO |
| CN(C)CCOc1ccc(-c2cc(-c3ccc(Cl)c(O)c3)c(-c3ccncc3)[nH]2)cc1.Cl.Cl | RPS6KA4(Kin.Dom.2-C-terminal) | YES |

###

Test system: RSK1(Kin.Dom.2-C-terminal)
Construct: gene RPS6KA1
Conditions: concentration: 1 μM, replicates: in singlicate; n = 1
// reported %Inh per item
outcome measure: %Inh (%)

| compound | target entity | measurement |
| --- | --- | --- |
| Cc1ccc(Nc2ccnc(Nc3ccc(C)c(F)c3)n2)cc1O.Cl | RSK1(Kin.Dom.2-C-terminal) | 0 |
| Cc1ccc(NC(=O)c2cccc(N3CCCCC3)c2)cc1-c1ccc(C(=O)NCC2CC2)cc1 | RSK1(Kin.Dom.2-C-terminal) | 1 |
| Cc1ccccc1CC(=O)N1CCc2cc(-c3cn(C)c4ncnc(N)c34)ccc21 | RSK1(Kin.Dom.2-C-terminal) | 4 |
| COc1cc(Nc2nccc(N3CCC(NC(=O)Nc4ccc5c(c4)OCO5)C3)n2)cc(OC)c1OC (centres unmarked) | RSK1(Kin.Dom.2-C-terminal) | 2 |
| COc1cccc(NC(=O)NCCNc2ccnc(Nc3ccc(F)cc3)n2)c1 | RSK1(Kin.Dom.2-C-terminal) | 0 |
